# subjectOfTest: C3aR I102^3.32A (Homo sapiens, UniProt Q16581, I102A)
# Construct: expressed in transfected cells; host or cells: HEK293T
# Sequence (Q16581 1-482 I102A): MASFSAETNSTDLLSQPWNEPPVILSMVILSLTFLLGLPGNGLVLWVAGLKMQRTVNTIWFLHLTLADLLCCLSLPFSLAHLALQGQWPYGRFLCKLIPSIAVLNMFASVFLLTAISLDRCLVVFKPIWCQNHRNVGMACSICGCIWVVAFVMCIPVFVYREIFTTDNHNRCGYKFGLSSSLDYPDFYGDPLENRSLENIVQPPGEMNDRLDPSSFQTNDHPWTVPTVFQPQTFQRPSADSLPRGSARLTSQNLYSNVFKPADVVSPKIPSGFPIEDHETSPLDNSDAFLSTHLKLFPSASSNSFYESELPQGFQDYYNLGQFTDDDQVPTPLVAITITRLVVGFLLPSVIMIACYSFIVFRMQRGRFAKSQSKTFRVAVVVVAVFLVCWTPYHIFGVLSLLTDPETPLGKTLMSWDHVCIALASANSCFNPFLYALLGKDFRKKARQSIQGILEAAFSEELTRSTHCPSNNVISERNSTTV
# protocolDescription: GloSensor-based cAMP assay, C3aR mutant I102A
# Format: cell-based
# conditionsUsed: IC50, I102^3.32A; dose-response plot
reportedMetric: IC50
The answer consists of two parts: a number and, after it, its unit.

Data request: Report measured IC50; entry is Cc1cc(C(c2ccc(Cl)cc2)c2ccc(Cl)cc2)sc1C(=O)N[C@@H](CCCNC(=N)N)C(=O)O [JR14a, reference compound]
Data returned: 7.05 nM

Data provenance is paper PMC12084609.
